Values compiled from patent US6514997B2.

Entries annotated with measured CC50
test: Cytotoxicity (CC50) in mock-infected H1-HeLa cells, XTT dye reduction
Assay type: cell-based, human
conditions: human, H1-HeLa cells, uninfected (mock-infected); line of CVB2
Method: In this cell protection assay, the ability of compounds to protect cells against HRV infection was measured by the XTT dye reduction method, which is described in Weislow et al., J. Natl. Cancer Inst. […] Two days later, XTT/PMS was added to test plates and the amount of formazan produced was quantified spectrophotometrically at 450/650 nm. […] The therapeutic index (TI) was calculated by dividing the CC50 value by the EC50 value. […]

Could you share which CC50 value was measured for C#CC[C@@H](C(=O)N[C@H](/C=C/C(=O)OCC)C[C@@H]1CCNC1=O)n1cccc(NC(=O)c2cc(C)on2)c1=O ?
> 10 µM

# query: CC50 of entry C#CC[C@@H](C(=O)N[C@H](/C=C/C(=O)OC(C)(C)C)C[C@@H]1CCNC1=O)n1cccc(NC(=O)c2cc(C)on2)c1=O
> 10 µM

If you can, please state the reported CC50 value of CCOC(=O)/C=C/[C@H](C[C@@H]1CCNC1=O)NC(=O)[C@H](CC)n1cccc(NC(=O)c2cc(C)on2)c1=O .
> 10 µM

---

System: H1-HeLa cells
test: Cytotoxicity (CC50) in mock-infected H1-HeLa cells, XTT dye reduction
Type: cell-based, human
conditions: HRV-10
Procedure: In this cell protection assay, the ability of compounds to protect cells against HRV infection was measured by the XTT dye reduction method, which is described in Weislow et al., J. Natl. Cancer Inst. […] Two days later, XTT/PMS was added to test plates and the amount of formazan produced was quantified spectrophotometrically at 450/650 nm. […] The therapeutic index (TI) was calculated by dividing the CC50 value by the EC50 value. […]
metric: CC50

Use these answered entries as a reference point.
- smiles str: "C#CC[C@@H](C(=O)N[C@H](/C=C/C(=O)OCc1ccccc1)C[C@@H]1CCNC1=O)n1cccc(NC(=O)c2cc(C)on2)c1=O"
  test system: "H1-HeLa cells"
  metric: "CC50"
  test value: "> 10 µM"
- smiles str: "C#CC[C@@H](C(=O)N[C@H](/C=C/C(=O)OC1CCCCC1)C[C@@H]1CCNC1=O)n1cccc(NC(=O)c2cc(C)on2)c1=O"
  test system: "H1-HeLa cells"
  metric: "CC50"
  test value: "> 10 µM"

Which measured CC50 value corresponds to C#CC[C@@H](C(=O)N[C@H](/C=C/C(=O)OC1CCCCCC1)C[C@@H]1CCNC1=O)n1cccc(NC(=O)c2cc(C)on2)c1=O ?
> 10 µM

---

# key: entry, value: kinact/KI
test system: Recombinant rhinovirus 3C protease, serotype 14 (Human rhinovirus 14, UniProt P03303)
Construct: Recombinant rhinovirus 3C proteases; made in house
Sequence (P03303 1538-1719): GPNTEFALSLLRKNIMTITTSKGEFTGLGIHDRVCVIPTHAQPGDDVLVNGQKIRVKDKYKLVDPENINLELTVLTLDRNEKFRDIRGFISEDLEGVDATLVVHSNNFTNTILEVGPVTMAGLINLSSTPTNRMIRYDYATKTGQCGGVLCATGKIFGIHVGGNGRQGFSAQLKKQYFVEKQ
test: Inhibition of rhinovirus 3C protease (FRET assay, kobs/[I]), serotype 14
Type: biochemical
conditions: pH 7.6; HRV-14; read-out: kobs/[I] (3C protease inhibition activity)

- smiles str: "CCOC(=O)/C=C/[C@H](C[C@@H]1CCNC1=O)NC(=O)[C@H](Cc1ccccc1)N1CCc2c(C)c[nH]c2C1=O"
  kinact/KI: "673 M⁻¹ s⁻¹"

Query (compound): CCOC(=O)/C=C/[C@H](CCC(N)=O)NC(=O)[C@H](Cc1ccccc1)n1cccc(NC(=O)C2CCCC2)c1=O ; field requested: kinact/KI
37400 M⁻¹ s⁻¹

Tell me the measured kinact/KI of CCOC(=O)/C=C/[C@H](C[C@@H]1CCNC1=O)NC(=O)Cn1cccc(NC(=O)c2cc(C)on2)c1=O , please.
18500 M⁻¹ s⁻¹
